Recorded inhibition for the following compounds
Target: Aminopeptidase N (Plasmodium falciparum (isolate 3D7)) (UniProt O96935)
Sequence (O96935 whole entry, looked up): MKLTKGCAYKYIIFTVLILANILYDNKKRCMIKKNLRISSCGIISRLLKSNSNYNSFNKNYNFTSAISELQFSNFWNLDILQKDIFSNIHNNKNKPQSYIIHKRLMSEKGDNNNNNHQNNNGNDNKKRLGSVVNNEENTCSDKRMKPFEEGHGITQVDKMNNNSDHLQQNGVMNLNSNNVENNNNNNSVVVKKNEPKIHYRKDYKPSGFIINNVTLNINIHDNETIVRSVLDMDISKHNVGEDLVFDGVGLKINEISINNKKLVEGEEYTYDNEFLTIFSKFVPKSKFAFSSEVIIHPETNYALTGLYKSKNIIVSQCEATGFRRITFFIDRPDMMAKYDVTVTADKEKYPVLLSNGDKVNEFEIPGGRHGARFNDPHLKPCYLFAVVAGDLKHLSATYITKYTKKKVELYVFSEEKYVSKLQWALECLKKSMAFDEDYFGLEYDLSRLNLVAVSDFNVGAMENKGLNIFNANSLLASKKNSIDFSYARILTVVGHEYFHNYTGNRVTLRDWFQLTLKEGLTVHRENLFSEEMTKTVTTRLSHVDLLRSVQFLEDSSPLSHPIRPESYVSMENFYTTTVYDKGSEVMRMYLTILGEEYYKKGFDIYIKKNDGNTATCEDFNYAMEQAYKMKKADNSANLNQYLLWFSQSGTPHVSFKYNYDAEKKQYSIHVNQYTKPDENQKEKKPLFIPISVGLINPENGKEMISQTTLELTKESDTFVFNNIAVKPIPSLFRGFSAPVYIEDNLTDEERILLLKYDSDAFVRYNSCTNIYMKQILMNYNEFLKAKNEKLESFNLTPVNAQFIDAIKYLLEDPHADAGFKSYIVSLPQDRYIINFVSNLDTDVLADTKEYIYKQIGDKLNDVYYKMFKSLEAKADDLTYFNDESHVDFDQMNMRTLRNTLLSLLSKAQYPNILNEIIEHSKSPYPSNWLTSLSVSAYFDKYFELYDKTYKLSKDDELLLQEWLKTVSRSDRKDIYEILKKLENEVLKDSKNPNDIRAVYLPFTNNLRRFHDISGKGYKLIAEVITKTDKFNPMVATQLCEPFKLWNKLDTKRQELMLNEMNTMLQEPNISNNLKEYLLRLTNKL
Experiment: malaria alanyl aminopeptidase activity blockers – biochemical, fluorogenic H-Leu-NHMec substrate, 1536-well (AID 1445);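 further: plate controls were DMSO full reaction for no effect and no enzyme background for full effect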
Settings: recombinant M1AAP, H-Leu-NHMec fluorogenic kinetic assay; at 30 µM, hits give high values unless noted
Hit rate of the full screen: of about 220,000 compounds, about 910 (0.41%) were called active. What follows is part of a selection rich in actives, with near analogues and random picks from the rest. Potency and affinity values are given separately.
Reply with just the number (in %).

Compound	Assay Target	Unit Text	inhibition
CCOC(=O)c1ccc(NC(=O)CSc2ncccn2)cc1	Aminopeptidase N (Plasmodium falciparum (isolate 3D7)) (UniProt O96935)	%	25.8
CCC(=O)NC(=S)Nc1c(C)cc(Br)cc1C	Aminopeptidase N (Plasmodium falciparum (isolate 3D7)) (UniProt O96935)	%	0.48
COC(=O)N1CCCc2cc(C)ccc21	Aminopeptidase N (Plasmodium falciparum (isolate 3D7)) (UniProt O96935)	%	-4.46
C/C(N)=C(/C#N)C(=O)COC(=O)Cc1coc2cc(C)ccc12	Aminopeptidase N (Plasmodium falciparum (isolate 3D7)) (UniProt O96935)	%	4.44
COC(=O)c1sccc1S(=O)(=O)Nc1ccc(S(N)(=O)=O)cc1	Aminopeptidase N (Plasmodium falciparum (isolate 3D7)) (UniProt O96935)	%	2.58

Req: Give recorded inhibition with Aminopeptidase N (Plasmodium falciparum (isolate 3D7)) (UniProt O96935) for the following compound: `CCOC(=O)c1ccc(NC(=O)CSc2nccn2C)cc1`
Resp: 13.7

Req: Give recorded inhibition with Aminopeptidase N (Plasmodium falciparum (isolate 3D7)) (UniProt O96935) for the following compound: `CCCn1c(N2CCN(C)CC2)nc2c1c(=O)[nH]c(=O)n2C`
Resp: -4.63

Req: Give recorded inhibition with Aminopeptidase N (Plasmodium falciparum (isolate 3D7)) (UniProt O96935) for the following compound: `CC1(CC(=O)N/N=C/c2cc(Br)c(O)cc2O)OCCO1`
Resp: 31.5

Req: Give recorded inhibition with Aminopeptidase N (Plasmodium falciparum (isolate 3D7)) (UniProt O96935) for the following compound: `COC(=O)/C(=C\Nc1cccc(Cl)c1C)c1ncc(C(F)(F)F)cc1Cl`
Resp: -7.97

Req: Give recorded inhibition with Aminopeptidase N (Plasmodium falciparum (isolate 3D7)) (UniProt O96935) for the following compound: `COc1ccc(C(=O)CSc2cc(C)nc(SCC(=O)c3ccc(C)cc3)n2)cc1`
Resp: 12.2

Req: Give recorded inhibition with Aminopeptidase N (Plasmodium falciparum (isolate 3D7)) (UniProt O96935) for the following compound: CCC(C)Nc1nc(OC(C(F)(F)F)C(F)(F)F)nc(OC(C(F)(F)F)C(F)(F)F)n1 (stereo not drawn)
Resp: 9.34

====

Molecular target: Aminopeptidase N (Plasmodium falciparum (isolate 3D7)) (UniProt O96935)
Assay: malaria alanyl aminopeptidase activity blockers – biochemical, fluorogenic H-Leu-NHMec substrate, 1536-well (AID 1445);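 further: plate controls were DMSO full reaction for no effect and no enzyme background for full effect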
Conditions: recombinant M1AAP, H-Leu-NHMec fluorogenic kinetic assay; at 30 µM, hits give high values unless noted
The campaign covered roughly 220,000 compounds. About 910 (0.41%) were called active. Only a selection was taken, and actives are over-represented in it overall. Entries with a potency or affinity are not part of this list.
Property: inhibition (%)
Reply with just the number (in %).

Here's what some known entries look like.
Compound	Assay Target	Unit Text	inhibition
COCCNC(=O)COc1ccccc1Cl	Aminopeptidase N (Plasmodium falciparum (isolate 3D7)) (UniProt O96935)	%	17.4
c1cnc(N2CCN(c3nc4ccccc4n4cnnc34)CC2)nc1	Aminopeptidase N (Plasmodium falciparum (isolate 3D7)) (UniProt O96935)	%	24.4
Cc1ccc(C(=O)C(OC(=O)c2cnccn2)c2ccccc2)cc1 (configuration not stated)	Aminopeptidase N (Plasmodium falciparum (isolate 3D7)) (UniProt O96935)	%	1.17
c1ccc(N2CCN(c3nc4ccccc4n4cnnc34)CC2)cc1	Aminopeptidase N (Plasmodium falciparum (isolate 3D7)) (UniProt O96935)	%	14.5
Nc1cc2c(cc1[N+](=O)[O-])OCO2	Aminopeptidase N (Plasmodium falciparum (isolate 3D7)) (UniProt O96935)	%	7.4

Continue with the compound presented below.
Req: For the compound `O=C(CN1CCN(Cc2ccc(Cl)cc2)C1=O)NCCN1CCCC1` , what inhibition is on record?
Resp: 1.07

Ref: PubChem BioAssay AID1445
